Measured values drawn from the supplement of paper PMC10126150 for this set.

- System: ATP;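 note: ATP exposure 15 min at 22 °C before imaging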
- Assay Overview: switch fluorescence ratio, 500 uM ATP over buffer (Cy3 cluster intensity, sum of 5 cycles each) (fold (ratio)); higher = stronger signal-on switching upon ATP binding; sequences stand for … in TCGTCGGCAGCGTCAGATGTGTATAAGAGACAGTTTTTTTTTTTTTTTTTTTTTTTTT…TC
- Condition Context: aptamer strand: ATP DNA aptamer (quencher-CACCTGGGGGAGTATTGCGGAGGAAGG + anchor), 100 nM annealed; ATP concentration: 500 uM
Outcome Measure: switch fluorescence ratio
Answer with the value's number alone.

Here are 5 sequences together with their reported answers.
CGTGCACAAA = 0.981
ACGCTTGGGA = 0.998
AGTATTCGCT = 0.975
CAACCAGTGT = 1.31
GTCCGAGAAT = 0.986

Next, consider the following sequence.
Req: So what switch fluorescence ratio did CGGCTTAATA get with ATP?
Resp: 1.02

---

- System: ATP;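 note: ATP exposure 15 min at 22 °C before imaging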
- Assay Overview: switch fluorescence ratio, 500 uM ATP over buffer (Cy3 cluster intensity, sum of 5 cycles each) (fold (ratio)); higher = stronger signal-on switching upon ATP binding; sequences stand for … in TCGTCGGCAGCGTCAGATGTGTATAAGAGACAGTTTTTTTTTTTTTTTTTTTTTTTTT…TC
- Condition Context: aptamer strand: ATP DNA aptamer (quencher-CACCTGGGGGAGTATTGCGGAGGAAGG + anchor), 100 nM annealed; ATP concentration: 500 uM
Outcome Measure: switch fluorescence ratio

Here are 6 sequences together with their reported answers.
TTTGAGTTGG = 1
AAGGGTTGCG = 0.985
TCGAAGAGTT = 0.994
AGACTAAAAG = 0.986
TCCTTGATTG = 0.974
GGTAGAGGTT = 0.985

Req: Please look up its switch fluorescence ratio: AGGAAAATGG
Resp: 1

Req: What do you have for CATGATCCGT ?
Resp: 1.01

---

Here the recorded switch fluorescence ratio is given for each entry.
- Tested on: ATP;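 note: ATP exposure 15 min at 22 °C before imaging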
- Assay Overview: switch fluorescence ratio, 500 uM ATP over buffer (Cy3 cluster intensity, sum of 5 cycles each) (fold (ratio)); higher = stronger signal-on switching upon ATP binding; sequences stand for … in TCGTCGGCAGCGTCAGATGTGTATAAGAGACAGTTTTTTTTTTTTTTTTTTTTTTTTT…TC
- Condition Context: aptamer strand: ATP DNA aptamer (quencher-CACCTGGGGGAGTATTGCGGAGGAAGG + anchor), 100 nM annealed; ATP concentration: 500 uM
Answer with the value's number alone.

TAAGGGGAGT = 1.01
TAAAAAGAGC = 0.984
GGGTGATGGC = 1.01
TGGTTTGATC = 1.01
TTTGGTTGCT = 0.991
ATGAATGTTT = 1
GTTATTTTGT = 0.99
ATGATGGTCC = 0.978

Req: Please look up its switch fluorescence ratio: TTTGAGTTAA
Resp: 0.994

Req: What do you have for CCGTATAAGG ?
Resp: 1.02

Req: What do you have for TTTAATACGT ?
Resp: 1.02

Req: What do you have for GTGTGTTGTC ?
Resp: 1.01

Req: What do you have for ATGCCGGAG ?
Resp: 0.986

Req: What do you have for AATGCCTCAG ?
Resp: 1

Req: What do you have for TACTAGGCTG ?
Resp: 0.992

---

- System: ATP;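 note: ATP exposure 15 min at 22 °C before imaging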
- Assay Overview: switch fluorescence ratio, 500 uM ATP over buffer (Cy3 cluster intensity, sum of 5 cycles each) (fold (ratio)); higher = stronger signal-on switching upon ATP binding; sequences stand for … in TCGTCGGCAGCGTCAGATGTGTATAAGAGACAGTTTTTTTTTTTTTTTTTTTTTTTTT…TC
- Condition Context: aptamer strand: ATP DNA aptamer (quencher-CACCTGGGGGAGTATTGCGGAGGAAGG + anchor), 100 nM annealed; ATP concentration: 500 uM
Threshold check on switch fluorescence ratio: at or above 1 gives fulfilled, strictly below gives not fulfilled.

TTTGAGGATA = fulfilled
TGCAGCAGGT = fulfilled

Req: // inclusive: switch fluorescence ratio at least 1? input: TGAAGCGGCG
Resp: not fulfilled

Req: What do you have for CGGTAGTTCG ?
Resp: not fulfilled

---

Here the recorded switch fluorescence ratio is given for each entry.
- System: ATP;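 note: ATP exposure 15 min at 22 °C before imaging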
- Assay Overview: switch fluorescence ratio, 500 uM ATP over buffer (Cy3 cluster intensity, sum of 5 cycles each) (fold (ratio)); higher = stronger signal-on switching upon ATP binding; sequences stand for … in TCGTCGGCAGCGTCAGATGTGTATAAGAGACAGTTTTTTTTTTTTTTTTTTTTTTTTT…TC
- Condition Context: aptamer strand: ATP DNA aptamer (quencher-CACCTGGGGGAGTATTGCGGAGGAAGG + anchor), 100 nM annealed; ATP concentration: 500 uM
Answer with the value's number alone.

ATCACGTCTA = 1.02
TGCTAGCTAT = 1.02
GGATAGAGGA = 1.01
GACGTAATTA = 1.5
ATTGAGTAA = 0.976
CGGTGGGGCA = 1.1
CCATACGTAG = 1.04
CGGTCCTATG = 0.993

Req: Please look up its switch fluorescence ratio: GGTTGCGGGG
Resp: 0.985

Req: What do you have for AATAGTTTAT ?
Resp: 0.986

---

- Test system: ATP;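 note: ATP exposure 15 min at 22 °C before imaging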
- Assay Overview: switch fluorescence ratio, 500 uM ATP over buffer (Cy3 cluster intensity, sum of 5 cycles each) (fold (ratio)); higher = stronger signal-on switching upon ATP binding; sequences stand for … in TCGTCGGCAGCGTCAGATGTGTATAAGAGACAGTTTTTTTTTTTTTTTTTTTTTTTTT…TC
- Condition Context: aptamer strand: ATP DNA aptamer (quencher-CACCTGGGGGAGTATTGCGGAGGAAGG + anchor), 100 nM annealed; ATP concentration: 500 uM
Outcome Measure: switch fluorescence ratio
Answer with the value's number alone.

Here are 3 sequences together with their reported answers.
CAGTGGCTTC = 1.01
GCTGGGGCCA = 1.02
GCTCGAACGA = 0.995

Req: Please look up its switch fluorescence ratio: TTCAAGGTCA
Resp: 1.02

Req: What do you have for TTAGATATTT ?
Resp: 0.98

Req: What do you have for TTGAAACATT ?
Resp: 1.01

Req: What do you have for TGATGGGTTG ?
Resp: 1

Req: What do you have for TGTGGCCGGG ?
Resp: 0.998

---

- Test system: ATP;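 note: ATP exposure 15 min at 22 °C before imaging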
- Assay Overview: switch fluorescence ratio, 500 uM ATP over buffer (Cy3 cluster intensity, sum of 5 cycles each) (fold (ratio)); higher = stronger signal-on switching upon ATP binding; sequences stand for … in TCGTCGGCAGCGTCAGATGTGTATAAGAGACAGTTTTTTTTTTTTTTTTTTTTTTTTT…TC
- Condition Context: aptamer strand: ATP DNA aptamer (quencher-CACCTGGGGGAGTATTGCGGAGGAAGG + anchor), 100 nM annealed; ATP concentration: 500 uM
Here the recorded switch fluorescence ratio is given for each entry.
Answer with the value's number alone.

Here are 2 sequences together with their reported answers.
TATTATCTGC = 0.971
GGGTGTTAGT = 1

Next, consider the following sequence.
Req: So what switch fluorescence ratio did TAAATTTGAC get with ATP?
Resp: 0.996

---

- System: ATP;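 note: ATP exposure 15 min at 22 °C before imaging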
- Assay Overview: switch fluorescence ratio, 500 uM ATP over buffer (Cy3 cluster intensity, sum of 5 cycles each) (fold (ratio)); higher = stronger signal-on switching upon ATP binding; sequences stand for … in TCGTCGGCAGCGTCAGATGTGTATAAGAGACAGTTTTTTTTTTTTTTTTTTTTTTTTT…TC
- Condition Context: aptamer strand: ATP DNA aptamer (quencher-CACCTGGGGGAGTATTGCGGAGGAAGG + anchor), 100 nM annealed; ATP concentration: 500 uM
Here the recorded switch fluorescence ratio is given for each entry.
Answer with the value's number alone.

Here are 8 sequences together with their reported answers.
GGGTTTCAGG = 1.02
GGGATTTGTG = 0.972
AATGAGGGAA = 0.999
ATTGTAGGGA = 1
GCATGGCTTT = 1.01
GTTGAGCGGG = 0.979
TAGAGGATCA = 1
AGTGCATTGG = 1

Req: Please look up its switch fluorescence ratio: TTTGAATGGA
Resp: 1

---

- System: ATP;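 note: ATP exposure 15 min at 22 °C before imaging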
- Assay Overview: switch fluorescence ratio, 500 uM ATP over buffer (Cy3 cluster intensity, sum of 5 cycles each) (fold (ratio)); higher = stronger signal-on switching upon ATP binding; sequences stand for … in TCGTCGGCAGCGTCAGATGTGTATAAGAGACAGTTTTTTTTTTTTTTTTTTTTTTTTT…TC
- Condition Context: aptamer strand: ATP DNA aptamer (quencher-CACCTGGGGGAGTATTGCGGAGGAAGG + anchor), 100 nM annealed; ATP concentration: 500 uM
Here the recorded switch fluorescence ratio is given for each entry.
Answer with the value's number alone.

ATGTTCGTAG = 0.989
GTTAGCATTG = 1
TCTGTGTTAT = 1
ACTCTTATCG = 1.02
GGGTTGTGGT = 1.01

Req: Please look up its switch fluorescence ratio: GGGTCTGGGG
Resp: 0.995

Req: What do you have for TTGAGGTATG ?
Resp: 0.984

Req: What do you have for CAAGTAGGGG ?
Resp: 0.976

Req: What do you have for GTCAGGAGGG ?
Resp: 0.971

Req: What do you have for CGGTGGGACG ?
Resp: 1.02

Req: What do you have for TTTGGTTTTA ?
Resp: 1

Req: What do you have for ATTCATAGGC ?
Resp: 1

Req: What do you have for TATGTAATGT ?
Resp: 0.993

Req: What do you have for ACAGTCAAGG ?
Resp: 1.02

Req: What do you have for CAGGTTCTAC ?
Resp: 1.02

Req: What do you have for ATTTGTAAAG ?
Resp: 1
